subject of test: BTK(wt) (Homo sapiens (Human), UniProt Q06187)
Sequence (Q06187 whole entry): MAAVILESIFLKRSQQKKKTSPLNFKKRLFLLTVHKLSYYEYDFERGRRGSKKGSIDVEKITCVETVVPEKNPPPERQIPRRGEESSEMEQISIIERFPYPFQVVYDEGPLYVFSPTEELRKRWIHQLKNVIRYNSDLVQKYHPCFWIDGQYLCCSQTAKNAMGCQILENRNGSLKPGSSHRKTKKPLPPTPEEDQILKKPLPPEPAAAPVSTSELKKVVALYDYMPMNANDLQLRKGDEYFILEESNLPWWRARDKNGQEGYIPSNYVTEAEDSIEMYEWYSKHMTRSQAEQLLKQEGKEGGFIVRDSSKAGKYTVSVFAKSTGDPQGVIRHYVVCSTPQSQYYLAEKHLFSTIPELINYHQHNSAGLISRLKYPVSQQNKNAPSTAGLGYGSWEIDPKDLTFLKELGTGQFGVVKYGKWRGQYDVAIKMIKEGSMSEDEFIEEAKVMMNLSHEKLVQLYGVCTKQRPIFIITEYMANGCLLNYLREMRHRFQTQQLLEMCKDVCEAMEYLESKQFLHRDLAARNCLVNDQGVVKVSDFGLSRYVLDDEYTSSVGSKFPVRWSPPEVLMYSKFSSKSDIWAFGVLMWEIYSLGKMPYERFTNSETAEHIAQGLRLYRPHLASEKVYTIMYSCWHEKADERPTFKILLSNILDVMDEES
test name: In vitro inhibitory activity against BTK(wt) enzyme (33P-ATP filter binding)
Type: biochemical
stated conditions: class symbols
pIC50: −log10 of the molar value.
measure: pIC50

As a guide, the following entries are already answered.
compound	subject of test	pIC50
CC#CC(=O)NC12CCC(c3nc(-c4ccc(CNC(=O)c5cc(F)ccc5OC)cc4)c4c(N)nccn34)(CC1)C2	BTK(wt) (Homo sapiens (Human), UniProt Q06187)	8.00 to 9.00
Nc1nccn2c(C34CCC(NC(=O)c5ccccn5)(CC3)C4)nc(-c3ccc(C(=O)Nc4cc(C(F)(F)F)ccn4)cc3)c12	BTK(wt) (Homo sapiens (Human), UniProt Q06187)	7.30 to 8.00
Nc1nccn2c(C34CCC(NC(=O)c5cccnc5)(CC3)C4)nc(-c3ccc(C(=O)Nc4cc(C(F)(F)F)ccn4)cc3)c12	BTK(wt) (Homo sapiens (Human), UniProt Q06187)	7.30 to 8.00
CC#CC(=O)NC12CCC(c3nc(-c4ccc(C(=O)Nc5cc(C#N)ccn5)cc4)c4c(N)nccn34)(CC1)C2	BTK(wt) (Homo sapiens (Human), UniProt Q06187)	8.00 to 9.00
COCCC(=O)NC12CCC(c3nc(-c4ccc(C(=O)Nc5cc(C(F)(F)F)ccn5)cc4)c4c(N)nccn34)(CC1)C2	BTK(wt) (Homo sapiens (Human), UniProt Q06187)	8.00 to 9.00
COc1ccccc1C(=O)NC12CCC(c3nc(-c4ccc(C(=O)Nc5cc(C(F)(F)F)ccn5)cc4)c4c(N)nccn34)(CC1)C2	BTK(wt) (Homo sapiens (Human), UniProt Q06187)	7.30 to 8.00
N#CC1(C(=O)NC23CCC(c4nc(-c5ccc(C(=O)Nc6cc(C(F)(F)F)ccn6)cc5)c5c(N)nccn45)(CC2)C3)CC1	BTK(wt) (Homo sapiens (Human), UniProt Q06187)	8.00 to 9.00
COCCC(=O)NC12CCC(n3cc(-c4ccc(C(=O)Nc5cc(C(F)(F)F)ccn5)cc4)c4c(N)ncnc43)(CC1)C2	BTK(wt) (Homo sapiens (Human), UniProt Q06187)	8.00 to 9.00

stdin: Suppose we examine the compound Nc1nccn2c(C34CCC(NC(=O)c5ccccc5)(CC3)C4)nc(-c3ccc(C(=O)Nc4cc(C(F)(F)F)ccn4)cc3)c12 ; what pIC50 value has been reported?
stdout: 7.30 to 8.00

---

subject of test: BTK(wt) (Homo sapiens (Human))
test name: In vitro inhibitory activity against BTK(wt) enzyme (33P-ATP filter binding)
Assay type: biochemical
stated conditions: class symbols
pIC50: −log10 of the molar value.
measure: pIC50

stdin: Suppose we examine the compound CC(C)(O)C(=O)NC12CCC(c3nc(-c4ccc(C(=O)Nc5cc(C(F)(F)F)ccn5)cc4)c4c(N)nccn34)(CC1)C2 ; what pIC50 value has been reported?
stdout: 8.00 to 9.00

stdin: Similarly, N#CC1(C(=O)NC23CCC(c4nc(-c5ccc(C(=O)Nc6cc(C(F)(F)F)ccn6)cc5)c5c(N)nccn45)(CC2)C3)CCOCC1 ?
stdout: 8.00 to 9.00

stdin: Similarly, CC#CC(=O)NC12CCC(c3nc(-c4ccc(C(=O)Nc5cc(F)ccn5)cc4)c4c(N)nccn34)(CC1)C2 ?
stdout: 8.00 to 9.00

stdin: Similarly, COc1ccc(F)cc1C(=O)NCc1ccc(-c2nc(C34CCC(NC(=O)CN5CCOCC5)(CC3)C4)n3ccnc(N)c23)cc1 ?
stdout: 8.00 to 9.00

stdin: Similarly, C=CC(=O)NC12CCC(c3nc(-c4ccc(C(=O)Nc5cc(C(F)(F)F)ccn5)cc4)c4c(N)nccn34)(CC1)C2 ?
stdout: 8.00 to 9.00
